Molecular target: Myosin light chain kinase, smooth muscle (Homo sapiens) (UniProt Q15746)
Sequence (Q15746 whole entry): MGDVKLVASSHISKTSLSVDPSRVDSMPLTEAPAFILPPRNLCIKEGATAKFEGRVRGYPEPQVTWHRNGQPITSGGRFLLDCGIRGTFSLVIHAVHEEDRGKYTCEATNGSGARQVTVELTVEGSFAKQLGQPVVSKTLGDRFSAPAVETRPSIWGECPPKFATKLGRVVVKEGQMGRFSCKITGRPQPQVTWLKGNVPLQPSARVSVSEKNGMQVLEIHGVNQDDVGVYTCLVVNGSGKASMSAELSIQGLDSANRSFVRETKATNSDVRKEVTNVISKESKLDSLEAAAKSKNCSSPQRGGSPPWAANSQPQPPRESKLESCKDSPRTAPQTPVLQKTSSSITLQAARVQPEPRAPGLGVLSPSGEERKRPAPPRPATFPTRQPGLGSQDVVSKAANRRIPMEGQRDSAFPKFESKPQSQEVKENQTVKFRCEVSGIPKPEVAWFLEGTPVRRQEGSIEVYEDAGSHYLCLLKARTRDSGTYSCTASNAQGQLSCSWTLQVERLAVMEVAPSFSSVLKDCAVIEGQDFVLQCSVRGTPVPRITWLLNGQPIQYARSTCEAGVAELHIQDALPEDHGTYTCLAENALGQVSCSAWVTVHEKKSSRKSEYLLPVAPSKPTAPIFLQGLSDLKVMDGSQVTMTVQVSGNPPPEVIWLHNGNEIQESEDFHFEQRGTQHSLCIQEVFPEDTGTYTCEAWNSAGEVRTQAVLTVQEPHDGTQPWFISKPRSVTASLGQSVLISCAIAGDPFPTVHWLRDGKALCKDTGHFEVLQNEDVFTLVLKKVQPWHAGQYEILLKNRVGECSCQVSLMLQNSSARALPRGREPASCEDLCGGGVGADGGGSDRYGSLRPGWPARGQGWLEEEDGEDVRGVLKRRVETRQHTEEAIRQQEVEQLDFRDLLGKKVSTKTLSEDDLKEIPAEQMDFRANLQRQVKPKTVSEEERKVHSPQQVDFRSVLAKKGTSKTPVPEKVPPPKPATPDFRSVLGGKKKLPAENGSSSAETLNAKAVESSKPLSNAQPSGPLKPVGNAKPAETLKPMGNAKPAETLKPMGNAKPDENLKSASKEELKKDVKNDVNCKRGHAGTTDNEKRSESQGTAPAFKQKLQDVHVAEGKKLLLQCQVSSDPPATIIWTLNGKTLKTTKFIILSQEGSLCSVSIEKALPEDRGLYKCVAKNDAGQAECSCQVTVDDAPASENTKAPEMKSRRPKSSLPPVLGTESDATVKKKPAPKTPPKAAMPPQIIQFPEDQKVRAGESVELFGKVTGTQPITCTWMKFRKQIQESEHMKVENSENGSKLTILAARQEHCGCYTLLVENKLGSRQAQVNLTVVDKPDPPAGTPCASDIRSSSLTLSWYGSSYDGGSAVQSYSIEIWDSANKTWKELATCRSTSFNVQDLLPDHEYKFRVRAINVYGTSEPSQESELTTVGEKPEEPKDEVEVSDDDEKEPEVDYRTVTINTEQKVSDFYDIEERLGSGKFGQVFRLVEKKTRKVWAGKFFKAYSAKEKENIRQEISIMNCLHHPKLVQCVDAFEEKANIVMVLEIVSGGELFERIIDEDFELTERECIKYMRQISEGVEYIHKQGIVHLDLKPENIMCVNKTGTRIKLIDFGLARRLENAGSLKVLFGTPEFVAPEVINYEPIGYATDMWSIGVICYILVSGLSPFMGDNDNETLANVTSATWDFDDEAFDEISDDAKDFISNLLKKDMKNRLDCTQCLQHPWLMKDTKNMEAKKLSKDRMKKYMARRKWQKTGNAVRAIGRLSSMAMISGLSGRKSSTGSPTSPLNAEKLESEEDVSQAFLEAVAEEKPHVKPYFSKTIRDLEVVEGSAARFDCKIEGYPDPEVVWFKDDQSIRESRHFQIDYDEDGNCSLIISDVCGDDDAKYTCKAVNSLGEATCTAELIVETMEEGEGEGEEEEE
Conditions: at 1 µM
Measurement Type: residual activity (%)
Field: numeric (%). Do not append units.

# get_value(readout='residual activity', item= CCCCc1c(-c2ccc(OC)cc2)[nH]c2nccnc12 )
104

Look at this molecule and give its reported residual activity. Cn1c2ccccc2c2c3c(c4c5ccccc5n(CCC#N)c4c21)CNC3=O
16

Given the entry CCN(CC)CCNC(=O)c1c(C)[nH]c(/C=C2\C(=O)Nc3ccc(Cl)cc32)c1C , report its measured residual activity.
9

----------
Biological target: Serine/threonine-protein kinase Chk2 (Homo sapiens) (UniProt O96017)
Sequence (O96017 whole entry): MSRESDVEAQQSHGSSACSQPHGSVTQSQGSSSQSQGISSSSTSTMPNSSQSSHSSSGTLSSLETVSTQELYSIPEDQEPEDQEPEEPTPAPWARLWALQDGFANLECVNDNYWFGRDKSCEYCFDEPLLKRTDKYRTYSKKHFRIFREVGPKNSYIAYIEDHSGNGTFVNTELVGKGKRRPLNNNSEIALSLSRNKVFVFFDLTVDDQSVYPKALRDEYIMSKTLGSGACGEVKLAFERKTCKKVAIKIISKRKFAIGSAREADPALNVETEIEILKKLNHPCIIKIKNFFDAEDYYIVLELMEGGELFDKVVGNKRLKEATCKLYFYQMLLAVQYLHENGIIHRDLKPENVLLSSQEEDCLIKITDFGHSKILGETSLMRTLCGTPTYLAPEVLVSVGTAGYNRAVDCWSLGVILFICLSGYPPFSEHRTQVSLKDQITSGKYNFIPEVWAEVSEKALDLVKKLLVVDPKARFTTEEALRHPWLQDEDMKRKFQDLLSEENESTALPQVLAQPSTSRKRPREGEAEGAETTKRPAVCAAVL
Details: at 10 µM
Measurement Type: residual activity
# output: numeric value plus its unit

Give the measured residual activity of Nc1ncnc2[nH]nc(Nc3ccc(F)cc3)c12 .
59%

Entry CSc1nc(-c2ccc(F)cc2)c(-c2ccnc(NC(C)c3ccccc3)c2)[nH]1 (stereo not drawn) has what residual activity?
3%

Reported residual activity for Nc1n[nH]c2nc3ccccc3nc12 : what is it?
61%

----------
Kindly state residual activity for each of the entries shown.
Molecular target: Serine/threonine-protein kinase ULK3 (Homo sapiens) (UniProt Q6PHR2)
Sequence (Q6PHR2 whole entry): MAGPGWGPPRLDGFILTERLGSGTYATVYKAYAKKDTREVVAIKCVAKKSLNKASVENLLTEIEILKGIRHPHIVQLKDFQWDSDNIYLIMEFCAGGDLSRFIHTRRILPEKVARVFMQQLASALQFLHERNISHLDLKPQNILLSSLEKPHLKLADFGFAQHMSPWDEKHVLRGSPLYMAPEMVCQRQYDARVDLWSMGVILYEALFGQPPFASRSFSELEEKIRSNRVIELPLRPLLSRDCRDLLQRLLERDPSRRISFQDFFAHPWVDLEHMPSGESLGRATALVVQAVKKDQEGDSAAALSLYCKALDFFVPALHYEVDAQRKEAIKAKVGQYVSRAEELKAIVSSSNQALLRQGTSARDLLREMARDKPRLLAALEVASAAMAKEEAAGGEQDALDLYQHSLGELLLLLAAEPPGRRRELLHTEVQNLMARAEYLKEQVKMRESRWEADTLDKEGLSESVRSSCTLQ
Settings: at 1 µM
Show the value, then the unit it is measured in.

Quick one: residual activity for Nc1ncnc2[nH]nc(Nc3ccc(F)cc3)c12 ?
97%

Name the recorded residual activity for CCN(CC)CCNC(=O)c1c(C)[nH]c(/C=C2\C(=O)Nc3ccc(Cl)cc32)c1C .
17%

Form field: reported residual activity of Cn1c2ccccc2c2c3c(c4c5ccccc5n(CCC#N)c4c21)CNC3=O
39%

Query (compound): CC(C)[C@H](CO)Nc1nc(Nc2cc(N)cc(Cl)c2)c2ncn(C(C)C)c2n1 ; field requested: residual activity
41%

Which residual activity reading was recorded for the compound CCOC(=O)c1c(C)[nH]c(/C=C2\C(=O)Nc3ccccc32)c1C ?
76%

----------
Exercise: state measured residual activity for each of the compounds provided.
Molecular target: Glycogen synthase kinase-3 alpha (Homo sapiens) (UniProt P49840)
Sequence (P49840 2-483 limits assumed): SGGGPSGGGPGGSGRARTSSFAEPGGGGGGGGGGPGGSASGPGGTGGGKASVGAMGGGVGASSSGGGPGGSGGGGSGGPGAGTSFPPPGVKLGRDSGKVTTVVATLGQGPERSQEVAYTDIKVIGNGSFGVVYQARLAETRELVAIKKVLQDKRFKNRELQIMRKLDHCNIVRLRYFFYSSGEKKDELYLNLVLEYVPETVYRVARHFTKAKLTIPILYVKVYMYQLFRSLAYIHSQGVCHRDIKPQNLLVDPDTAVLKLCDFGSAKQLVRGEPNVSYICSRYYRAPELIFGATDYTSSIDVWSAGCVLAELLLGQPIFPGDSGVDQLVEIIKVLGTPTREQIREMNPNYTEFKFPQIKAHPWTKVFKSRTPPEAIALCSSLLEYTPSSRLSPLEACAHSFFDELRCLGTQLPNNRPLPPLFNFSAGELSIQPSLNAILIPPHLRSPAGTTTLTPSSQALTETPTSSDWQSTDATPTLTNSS
Details: at 10 µM
Your answer should be a plain number; it is taken to be in %.

Look at this compound and give its reported residual activity. COc1cc2ncnc(Nc3cccc(Cl)c3)c2cc1OC
121

For the compound shown here, Nc1nc(Nc2ccc(S(N)(=O)=O)cc2)nn1C(=O)c1c(F)cccc1F , give the reported residual activity.
4

Give its residual activity value. Item: N#C/C(=C1/Nc2ccccc2S1)c1ccnc(NCCc2cccnc2)n1
-1

residual activity lookup needed for O=C1NC(=O)c2c1c1c3ccccc3[nH]c1n1cncc21 , thanks.
4

Bench note: what residual activity did O=C(c1cc2cc(O)ccc2[nH]1)c1cc2cc(O)ccc2[nH]1 show?
26

Form field: reported residual activity of Nc1n[nH]c2nc3ccccc3nc12
50

// lookup residual activity for O=C(c1ccccc1)c1ccc(N2CCOCC2)cc1O
121

Any idea what its residual activity is? The compound is NC(=O)c1cccc(-c2cc(Nc3ccc(OC(F)(F)F)cc3)ncn2)c1
82

Please give the measured residual activity for this compound: CC(C)c1nn(-c2c(Cl)cccc2Cl)c2nc(Cc3ccc(OCCO)cc3)[nH]c(=O)c12
13

Quick one: residual activity for O=C1NC(=O)C(c2cn(CCCO)c3ncccc23)=C1c1cnccn1 ?
3

----------
Hi there, I'd appreciate the recorded residual activity for every entry that follows.
Biological target: Glycogen synthase kinase-3 beta (Homo sapiens) (UniProt P49841)
Sequence (P49841 whole entry, looked up): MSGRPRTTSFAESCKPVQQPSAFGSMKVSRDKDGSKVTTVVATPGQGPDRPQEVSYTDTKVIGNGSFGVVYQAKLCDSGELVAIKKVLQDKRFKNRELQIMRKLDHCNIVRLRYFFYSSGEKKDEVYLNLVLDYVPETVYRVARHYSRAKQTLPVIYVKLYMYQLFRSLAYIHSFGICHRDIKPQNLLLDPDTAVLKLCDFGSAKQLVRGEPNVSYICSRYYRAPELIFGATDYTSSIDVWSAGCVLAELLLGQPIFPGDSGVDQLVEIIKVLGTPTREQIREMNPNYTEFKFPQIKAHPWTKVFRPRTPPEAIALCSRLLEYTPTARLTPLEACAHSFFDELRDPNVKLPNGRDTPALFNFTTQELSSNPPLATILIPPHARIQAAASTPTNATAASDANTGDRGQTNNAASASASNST
Conditions: at 1 µM
Numeric only. Scale: %

// lookup residual activity | system=Glycogen synthase kinase-3 beta (Homo sapiens) (UniProt P49841) | key= O=C1Nc2ccccc2/C1=C\c1c(Cl)[nH]c2ccccc12
141

residual activity of CCCC(=O)Oc1ccc2[nH]c(C(=O)c3cc4ccccc4[nH]3)cc2c1 on Glycogen synthase kinase-3 beta (Homo sapiens) (UniProt P49841)?
99

Give the reported residual activity for O=C1Cc2c([nH]c3ccc(Br)cc23)-c2ccccc2N1 (system: Glycogen synthase kinase-3 beta (Homo sapiens) (UniProt P49841)).
8

Under Glycogen synthase kinase-3 beta (Homo sapiens) (UniProt P49841): residual activity value of O=C1C(Cl)=C(N2C(=O)CCC2=O)C(=O)c2ccccc21 ?
120

// fetch Glycogen synthase kinase-3 beta (Homo sapiens) (UniProt P49841) residual activity for O=C1NC(=O)C(c2c[nH]c3ccccc23)=C1c1c[nH]c2ccccc12
31

Form entry - test system: Glycogen synthase kinase-3 beta (Homo sapiens) (UniProt P49841); read-out: residual activity; molecule: CCCCc1c(-c2ccc(O)cc2)[nH]c2nccnc12
79

What reported residual activity corresponds to O=C(c1ccccc1)c1ccc(N2CCOCC2)cc1O on Glycogen synthase kinase-3 beta (Homo sapiens) (UniProt P49841)?
96

Sourced from ChEMBL document CHEMBL2218924
